# assayTarget: ϕDI Dut (dimeric dUTPase) (Staphylococcus aureus)
# Construct: His-tagged, pET-28a, E. coli BL21(DE3); homodimer; eight helices, residues 7-163 in helices
# procedureText: isothermal titration calorimetry
# measurementConditions: 50 mM HEPES pH 7.5, 250 mM NaCl, 5 mM MgCl2, 25°C; single-site model; read-out: dissociation constant
reportedProperty: Kd (µM)
# unit: µM | format: bare number

Q. I'm curious: which Kd was measured for O=c1ccn([C@H]2C[C@H](O)[C@@H](COP(=O)(O)NP(=O)(O)OP(=O)(O)O)O2)c(=O)[nH]1 [dUPNPP] tested on ϕDI Dut (dimeric dUTPase) (Staphylococcus aureus)?
A. 4.9
